Hey, just so you know, these numbers are from the supplement of paper PMC10899765.

tested on: MCF10A; experiment: one-nucleolus phenotype percent effect (relative to siNT 0% and siNOL11 100%); higher = more cells with one nucleolus (ribosome biogenesis inhibition); conditions: 20 nM; 72 h
measured.property: one-nucleolus phenotype percent effect (%)
A number alone suffices; assume %.

QUERY: Item CUGUACAGCCUCCUAGCUUUCC [hsa-let-7a-2-3p] has what recorded one-nucleolus phenotype percent effect?
RESULT: 2.44

QUERY: Item AUGGAUAAGGCUUUGGCUU [hsa-miR-1261] has what recorded one-nucleolus phenotype percent effect?
RESULT: 24.4

QUERY: Item GCAGAGAACAAAGGACUCAGU [hsa-miR-3919] has what recorded one-nucleolus phenotype percent effect?
RESULT: 38.7

QUERY: Item UGGAGAGAAAGGCAGUUCCUGA [hsa-miR-185-5p] has what recorded one-nucleolus phenotype percent effect?
RESULT: 5.33

QUERY: Item UGUGGGAUCUGGAGGCAUCUGG [hsa-miR-4654] has what recorded one-nucleolus phenotype percent effect?
RESULT: 6.3

QUERY: Item CCCCAGGGCGACGCGGCGGG [hsa-miR-1915-3p] has what recorded one-nucleolus phenotype percent effect?
RESULT: -13.1

QUERY: Item UAUUGCACUUGUCCCGGCCUGU [hsa-miR-92a-3p] has what recorded one-nucleolus phenotype percent effect?
RESULT: -3.22

QUERY: Item AAGAAGAGACUGAGUCAUCGAAU [hsa-miR-5197-3p] has what recorded one-nucleolus phenotype percent effect?
RESULT: -5.79

QUERY: Item UGGGGCGGAGCUUCCGGAGGCC [hsa-miR-3180-3p] has what recorded one-nucleolus phenotype percent effect?
RESULT: 8

QUERY: Item UGGGUCUUUGCGGGCGAGAUGA [hsa-miR-193a-5p] has what recorded one-nucleolus phenotype percent effect?
RESULT: 26.5

QUERY: Item AGCCGCGGGGAUCGCCGAGGG [hsa-miR-3648] has what recorded one-nucleolus phenotype percent effect?
RESULT: -17.8

QUERY: Item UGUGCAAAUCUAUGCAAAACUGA [hsa-miR-19a-3p] has what recorded one-nucleolus phenotype percent effect?
RESULT: -14.6

QUERY: Item UCCUACGCUGCUCUCUCACUCC [hsa-miR-6761-3p] has what recorded one-nucleolus phenotype percent effect?
RESULT: -18.4

QUERY: Item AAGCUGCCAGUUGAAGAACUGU [hsa-miR-22-3p] has what recorded one-nucleolus phenotype percent effect?
RESULT: -3.65

QUERY: Item UGGCAAACGUGGAAGCCGAGA [hsa-miR-4470] has what recorded one-nucleolus phenotype percent effect?
RESULT: 61

QUERY: Item AAGUGCCUCCUUUUAGAGUGUU [hsa-miR-519e-3p] has what recorded one-nucleolus phenotype percent effect?
RESULT: -10.9

QUERY: Item CUGCCAUGUCUAAGAAGAAAAC [hsa-miR-4659a-5p] has what recorded one-nucleolus phenotype percent effect?
RESULT: -12.3

QUERY: Item UUACGGACCAGCUAAGGGAGGC [hsa-miR-4788] has what recorded one-nucleolus phenotype percent effect?
RESULT: -0.639

QUERY: Item CCAGAGAUGGUUGCCUUCCUAU [hsa-miR-4756-3p] has what recorded one-nucleolus phenotype percent effect?
RESULT: -3.67

QUERY: Item ACUGGGUAGGUGGGGCUCCAGG [hsa-miR-6861-5p] has what recorded one-nucleolus phenotype percent effect?
RESULT: 6.88

QUERY: Item UCGACCGGACCUCGACCGGCU [hsa-miR-1307-5p] has what recorded one-nucleolus phenotype percent effect?
RESULT: -17.3

QUERY: Item AAUGUAGAGAUUGAUCAAAAU [hsa-miR-3668] has what recorded one-nucleolus phenotype percent effect?
RESULT: 2.57

QUERY: Item ACGCCCUUCCCCCCCUUCUUCA [hsa-miR-1249] has what recorded one-nucleolus phenotype percent effect?
RESULT: -13.3

QUERY: Item AAAAGUAAUUGCGGUCUUUGGU [hsa-miR-548j] has what recorded one-nucleolus phenotype percent effect?
RESULT: -14.6
